Data provenance: patent EP0711275B1

- Target under test: reversen Transkriptase RT (Human immunodeficiency virus type 1 group M subtype B)
- Construct: Hemmung der reversen Transkriptase RT
- Procedure details: Inhibition of RT, non-radioactive microtitre plate test
- Format: biochemical
- Condition set: inhibition of RT activity; incorporated nucleotides determined photometrically; read-out: IC50-Werte RT (converted)
Value kind: IC50 (nM)
Enter your answer as a number in nM; do not include the unit.

Answered examples (4):
N=C(NC(=S)Nc1ccc(Cl)cc1)SC1CCCCC1 [Beispiel 2f]	314
CCCCSC(=N)NC(=S)Nc1ccc(Cl)cc1 [Beispiel 2j]	2520
CC(C)CC(C)SC(=N)NC(=S)Nc1ccc(Cl)cc1 (stereo not shown) [Beispiel 1]	1820
N=C(NC(=S)Nc1ccc(Cl)cc1)SCc1cccc(Cl)c1 [Beispiel 2g]	891

Any idea what IC50 came out for N=C(NC(=S)Nc1ccc(Cl)cc1)SCc1ccccc1 [Beispiel 2e] on reversen Transkriptase RT (Human immunodeficiency virus type 1 group M subtype B)?
7290

Another compound to look at: N=C(NC(=S)Nc1ccc(Cl)cc1)Sc1ccccc1 [Beispiel 2n]
2800

CC(C)CC(C)SC(=N)NC(=S)Nc1cccc(F)c1 (stereo not shown) [Beispiel 2b] , same question.
3190
